# credit: patent EP4772193A1

Reported pKd is given for each of the following binders.
Biological target: T1, recombinant human soluble gpNMB (recombinant human gpNMB-FLAG-His) (human, UniProt Q14956 23-498)
T1 sequence: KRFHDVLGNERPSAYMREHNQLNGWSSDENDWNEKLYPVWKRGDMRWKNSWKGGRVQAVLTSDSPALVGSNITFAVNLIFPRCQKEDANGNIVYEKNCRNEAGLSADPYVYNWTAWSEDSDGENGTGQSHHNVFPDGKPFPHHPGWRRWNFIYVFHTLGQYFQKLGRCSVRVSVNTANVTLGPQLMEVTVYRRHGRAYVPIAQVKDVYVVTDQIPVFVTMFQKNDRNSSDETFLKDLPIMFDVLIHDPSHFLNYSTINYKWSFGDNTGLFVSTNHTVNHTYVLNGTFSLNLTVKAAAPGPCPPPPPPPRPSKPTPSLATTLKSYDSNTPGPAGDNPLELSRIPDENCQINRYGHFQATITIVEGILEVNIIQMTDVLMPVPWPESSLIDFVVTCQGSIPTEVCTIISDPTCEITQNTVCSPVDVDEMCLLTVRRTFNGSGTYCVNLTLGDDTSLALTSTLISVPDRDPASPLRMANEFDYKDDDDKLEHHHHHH
Assay: SPR, antibody 100 nM over captured gpNMB-FLAG-His, 25C
pKd: −log10 of the molar value.
quantity_measured: pKd

{"binder": "GPN18-7 (antibody, V domains shown, monoclonal with mouse IgG constant regions) VH: QVTLKESGPGILQPSQTLSLTCSFSGFSLSTSVMGVGWIRQPSGKGLEWLADIWWDDDKDYNPSLKSRLTISKDTSKNQVFLKIASVDTADTATYYCARAYYSNFEYYGMDYWGQGTSVTVSS VL: DVLMTQIPLSLPVSLGDQASISCRSSQTIVHSNGNTYLEWYLQKPGQSPKLLIYKVSNRFSGVPDRFSGSGSGTDFTLKISRVEAEDLGVYYCFQGSHVPFTFGSGTKLEIK", "quantity_measured": "pKd", "numeric_value": 7.64}
{"binder": "GPN15-2 (antibody, V domains shown, monoclonal with mouse IgG constant regions) VH: QVQLQQPGAELVKPGASVKMSCKASGYTFTNHNMHWVKQTPGQGLEWIGAFYTGNGDTSYNQKFKGKATLTADKSSSTAYIQLSSLTSEDSAVYYCARERYDGYYIAMDYWGQGTSVTVSS VL: QIVLTQSPAFMSVSPGEKVTMTCSASSSVYYMFWYQQKPRSSPKPWIYLTSKLASGVPARFSGSGSGTSYSVTISSMEAEDAATYYCQQWSSNPQWTFGGGTKLEIK", "quantity_measured": "pKd", "numeric_value": 11.46}
{"binder": "GPN11-10 (antibody, V domains shown, monoclonal with mouse IgG constant regions) VH: QVNLLQSGAALVKPGASVRLSCKTSGYTFTDCYIHWVRQSHGKSLEWIGFINPNSGYTFYNEKFKSKATLTVAKSTNTAYMELSRLTSEDSATYFCTRGDYYTSNLYDWFAYWGQGTLVTVSS VL: DTVMTQSPASMSTSVGERVTVNCKASQTVGTVVAWFQQKPGQSPKRLIYWATNRHTGVPDRFTGSGFGRDFSLTISNVEAEDLAVYYCLQYGSVPPTFGGGTKLELK", "quantity_measured": "pKd", "numeric_value": 7.89}
{"binder": "GPN06-1 (antibody, V domains shown, monoclonal with mouse IgG constant regions) VH: QVQLQQPGAEIVRPGASVKLSCKASGYTFTDNWMGWVKQRPGQGLEWIGAIDPSDSFTNYNQNFKGKATLTVDTSSSTAYMQLSSLTSEDSAVYFCTRSGYYGSPKLGGDYWGQGTTLTVSS VL: QIVLTQSPAIMSASLGEEITLTCSASSSISYMHWYQQKSGTSPKLLIYSTSNLASGVPSRFSGSGSGTFYSLTISSVEAEDAADYYCHQWNSYPCTFGGGTKLEIK", "quantity_measured": "pKd", "numeric_value": 8.85}
{"binder": "GPN15-3 (antibody, V domains shown, monoclonal with mouse IgG constant regions) VH: QVTLKESGPGILQPSQTLSLTCSFSGFSLTTSGMGVGWIRQPSGKGLEWLADMWWDDDKNYNPSLKSRLTISKDNSKKQVFLKIASVDTADTATYYCARRVYSSWFAYWGQGTLVTVSA VL: DIVMTQSQKFMSTSVGDRVSVTCKASQNVGANVAWYQQKPGQSPKTLIYSASYRYGGVPDRFTGSGSGTDFTFTITNVQSEDLAEYFCQQYNNYPLTFGAGTKLDLK", "quantity_measured": "pKd", "numeric_value": 8.54}
